experimentNotes: Cytotoxicity against human HEL cells assessed as alteration in cell morphology
Format: cell-based
endpointName: MCC (µM)
Give the quantity in µM, number only.

Param item = O=C1O/C(=C\Cn2cc3cc(CCc4ccccc4)oc3nc2=O)C(OCc2ccccc2)=C1OCc1ccccc1 ; retrieve measured MCC. 100

Continue with the next compound.
Fill blank: measured MCC of the compound CCCCc1ccc(C#Cc2cn(C/C=C3\OC(=O)C(OCc4ccccc4)=C3OCc3ccccc3)c(=O)[nH]c2=O)cc1 is ____. 60

----------
Tested on: Human betaherpesvirus 5
experimentNotes: Antiviral activity against CMV Davis in human HEL cells after 7 days
Assay type: functional, organism-based
settings: Human betaherpesvirus 5, Davis, 168 h
Each item that follows carries a reported EC50.
Write the value in nM as a bare number.

Entry under review: Nc1nc2c(ncn2COC(CO)CO)c(=O)[nH]1 [GANCICLOVIR] . Reported EC50? 2600

Then there is this compound:
I would be grateful if you could share the reported EC50 for Nc1ccn(C[C@@H](CO)OCP(=O)(O)O)c(=O)n1 [CIDOFOVIR] . 670

----------
experimentNotes: Cytotoxicity against human HEL cells assessed as alteration in cell morphology
Format: cell-based
endpointName: MCC

Here is how some compounds turned out for MCC.
What value of MCC has been reported for the following compound? Nc1nc2c(ncn2COC(CO)CO)c(=O)[nH]1 ≥ 1.57 mM

// MCC lookup, key: Nc1nc2c(ncn2COCCO)c(=O)[nH]1 > 1.78 mM

What value of MCC has been recorded for this entry: CCCCCc1ccc(C#Cc2cn(C/C=C3\OC(=O)C(OCc4ccccc4)=C3OCc3ccccc3)c(=O)[nH]c2=O)cc1 ≥ 0.004 mM

If you can, please state the reported MCC value of Nc1ccn(C[C@@H](CO)OCP(=O)(O)O)c(=O)n1 . ≥ 1.27 mM

Now consider the entry below.
I'd like to know its MCC. The compound in question is CCCCCc1ccc(-c2cc3cn(C/C=C4\OC(=O)C(OCc5ccccc5)=C4OCc4ccccc4)c(=O)nc3o2)cc1 ≥ 0.02 mM
